We begin with a simple list: items and their reported cell viability.
- Test system: OCI-AML2
- ASSAY_SUMMARY: cell viability relative to vehicle control; higher = less cytotoxic;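 further: after 48 h exposure read by CellTiter-Glo luminescence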
- PROTOCOL_CONDITIONS: 10 µM; SRSF2 genotype: P95H/wt
Structures can show the parent of a compound that is named as a salt.
ASSAY_METRIC: cell viability (%)

- COc1cc(Nc2ncc(F)c(Nc3ccc4c(n3)NC(=O)C(C)(C)O4)n2)cc(OC)c1OC: 41.2
- COc1ccc([C@@H]2CC(=O)c3c(O)cc(O[C@@H]4O[C@H](CO)[C@@H](O)[C@H](O)[C@H]4O[C@@H]4O[C@@H](C)[C@H](O)[C@@H](O)[C@H]4O)cc3O2)cc1 [Poncirin]: 95.1
- CCCOc1ccc(CCc2nc3cc(-c4c(C)noc4C)ccc3n2CCN2CCOCC2)cc1: 59.1
- O=C(O)[C@]1(Cc2cccc(Nc3nccs3)n2)CC[C@@H](Oc2cccc(Cl)c2F)CC1: 17.8
- COc1ccc(Cn2ccc3ccc(C(=O)NO)cc32)cc1: 69.3
- CC(=O)Nc1nc(-c2cccc(NS(=O)(=O)c3cccc4c(N(C)C)cccc34)c2)cs1: 33.3
- Cc1cn([C@H]2O[C@@H](CO)[C@H](O)[C@H]2F)c(=O)[nH]c1=O [Clevudine (Levovir)]: 99.6
- CCC1(c2c[nH]cn2)Cc2ccccc2C1 [Atipamezole hydrochloride]: 98.5
- C=C[C@@](C)(/C=C/c1ccc(O)cc1)CCC=C(C)C [Bakuchiol]: 83.1
- COc1ccc(CC(C)NCC(O)c2ccc(O)c(NC=O)c2)cc1 (configuration not stated) [Formoterol hemifumarate]: 106
- S=c1[nH]cnc2nc[nH]c12 [Mercaptopurine (6-MP)]: 83.2
- Nc1ccc(O)cc1 [4-Aminophenol]: 3.01
- CC(C)CC(CC(=O)NO)C(=O)N[C@@H](Cc1ccc2ccccc2c1)C(=O)N[C@@H](C)C(=O)NCCN (some centres not stated): 110
- Cc1cc2c(s1)Nc1ccccc1N=C2N1CCN(C)CC1 [Olanzapine (Zyprexa)]: 81.7
- Cc1ccccc1-c1cc(N2CCN(C)CC2)ncc1N(C)C(=O)C(C)(C)c1cc(C(F)(F)F)cc(C(F)(F)F)c1 [Netupitant]: 70.3
- CCCCOC(=O)c1ccccc1Nc1cccc(C(F)(F)F)c1 [Ufenamate]: 110
- C[C@]12CC[C@@H]3c4ccc(O)cc4CC[C@H]3[C@@H]1C[C@@H](O)[C@@H]2O [Estriol]: 91
- C[C@H]1[C@H](C)CC[C@]2(C(=O)O)CC[C@]3(C)C(=CC[C@@H]4[C@@]5(C)CCC(=O)C(C)(C)[C@@H]5CC[C@]43C)[C@H]12 [Ursonic acid]: 24.6
- CCCCN(Cc1ccc(C(=O)NO)cc1)C(=O)Nc1ccccc1 [Nexturastat A]: 3.08
- CC(c1cc2ccccc2s1)N(O)C(N)=O (configuration not stated) [Zileuton]: 92.8
- CO[C@@H](C(=O)N1Cc2[nH]nc(NC(=O)c3ccc(N4CCN(C)CC4)cc3)c2C1)c1ccccc1: 6.56
- CN1C(C(=O)Nc2ccccn2)=C(O)c2sccc2S1(=O)=O [Tenoxicam(Mobiflex)]: 95.5
- O=C(COc1ccc(C(=O)c2ccccc2)cc1)NC1CCN(Cc2ccccc2)CC1 [Adiporon]: 40.5
- FC(F)(F)c1ccc(/C=C/c2nc(COc3ccc(CCCCn4ccnn4)cc3)co2)cc1 [Mubritinib (TAK 165)]: 49.2
- COC(=O)c1ccc(O)cc1 [Methyl 4-hydroxybenzoate]: 91.2
- Cc1ccnc2c1NC(=O)c1cccnc1N2C1CC1 [Nevirapine (Viramune)]: 91.6
- O=C(c1ccc(F)c(F)c1Nc1ccc(I)cc1F)N1CC(O)([C@@H]2CCCCN2)C1 [Cobimetinib (GDC-0973, RG7420)]: 18.2
- CC(=O)OC(C)C(C)C(=O)OCC12C3CC(C)(C)[C@H](O[C@@H]1C[C@]1(C)C3=CCC3C4(C)CCC(O[C@@H]5O[C@H](C(=O)O)[C@@H](O[C@H]6O[C@H](CO)[C@@H](O)[C@H](O)[C@H]6O)[C@H](O)[C@H]5O[C@@H]5OC[C@@H](O)[C@H](O)[C@H]5O)[C@](C)(CO)C4CCC31C)C2O (some centres not stated) [Sodium Aescinate]: 88.5
- CC(C)CC(=O)Nc1n[nH]c2c1CN(C(=O)C1CCN(C)CC1)C2(C)C: 8.45
- COc1ccnc(C[S+]([O-])c2nc3cc(OC(F)F)ccc3[nH]2)c1OC (configuration not stated) [Pantoprazole (Protonix)]: 113
- CC(C)(C)c1cnc(CSc2cnc(NC(=O)C3CCNCC3)s2)o1: 4.54
- O=C(Nc1ccc(OC(F)(F)Cl)cc1)c1cnc(N2CC[C@@H](O)C2)c(-c2cc[nH]n2)c1 [Asciminib (ABL001)]: 41.2

====

- Test system: MOLM14
- ASSAY_SUMMARY: cell viability relative to vehicle control; higher = less cytotoxic
- PROTOCOL_CONDITIONS: 10 µM; SRSF2 genotype: SRSF2 P95H/wt
Recorded measurements of cell viability, one per entry
ASSAY_METRIC: cell viability (%)

* C#C[C@]1(O)CC[C@H]2[C@@H]3CCc4cc(OC5CCCC5)ccc4[C@H]3CC[C@@]21C | 78.8
* CCCCNC(=O)NS(=O)(=O)c1ccc(C)cc1 [Tolbutamide] | 102
* c1cncc(CN2CCC(n3ncc4c(N5CCOCC5)nc(-c5ccc6[nH]ccc6c5)nc43)CC2)c1 | 35
* Cc1cc(C)nc(NS(=O)(=O)c2ccc(N)cc2)n1 [Sulfamethazine] | 110
* C[C@@H]1CC[C@@]2(OC1)O[C@H]1C[C@H]3[C@@H]4CC=C5C[C@@H](O[C@@H]6O[C@H](CO)[C@@H](O)[C@H](O[C@@H]7O[C@H](CO)[C@@H](O)[C@H](O)[C@H]7O)[C@H]6O[C@@H]6O[C@@H](C)[C@H](O)[C@@H](O)[C@H]6O)CC[C@]5(C)[C@H]4CC[C@]3(C)[C@H]1[C@@H]2C | 12
* C[C@@]12C[C@@]3(O)O[C@@H](O1)[C@]1(COC(=O)c4ccccc4)[C@@H]3C[C@]12O[C@@H]1O[C@H](COC(=O)c2ccccc2)[C@@H](O)[C@H](O)[C@H]1O | 104
* Nc1ccc(S(=O)(=O)Nc2ccccn2)cc1 | 103
* O=C(c1ccccc1)c1ccc2nc(NC(=O)c3csc(C4CCN(c5ncnc6ccsc56)CC4)n3)[nH]c2c1 | 34.2
* Cc1ccc(S(=O)(=O)OCC(=O)Nc2ccc(C(=O)O)c(O)c2)cc1 | 99.7
* COc1ccc(-c2cnc3c(-c4cccc5ncccc45)cnn3c2)cc1 | 93
* N#CC[C@H](C1CCCC1)n1cc(-c2ncnc3[nH]ccc23)cn1 | 75.5
* O=C(NCCO)c1cccc(-c2cc(Nc3ccc(OC(F)(F)F)cc3)ncn2)c1 | 93.2
* CCc1c(C(=O)NCCc2ccc(N3CCCCC3)cc2)[nH]c2ccc(Cl)cc12 | 85.4
* COc1cc(O)c(C(=O)Nc2nc(C(=O)NCCN(C(C)C)C(C)C)cs2)cc1OC [Acotiamide] | 97.5
* C[C@@H]1CC[C@@]2(OC1)O[C@H]1C[C@H]3[C@@H]4CC=C5C[C@@H](O[C@@H]6O[C@H](CO)[C@@H](O[C@@H]7O[C@@H](C)[C@H](O[C@@H]8O[C@@H](C)[C@H](O)[C@@H](O)[C@H]8O)[C@@H](O)[C@H]7O)[C@H](O)[C@H]6O[C@@H]6O[C@@H](C)[C@H](O)[C@@H](O)[C@H]6O)CC[C@]5(C)[C@H]4CC[C@]3(C)[C@@]1(O)[C@@H]2C | 0.44

====

- Test system: K562
- ASSAY_SUMMARY: cell viability relative to vehicle control; higher = less cytotoxic
- PROTOCOL_CONDITIONS: 10 µM; SRSF2 genotype: SRSF2 wt/wt
Counter-ions that a name gives are not always drawn.
Define the label as fulfilled when cell viability is strictly less than 90% and as not fulfilled in all remaining cases.

- NC(=O)Nc1sc(-c2ccc(F)cc2)cc1C(N)=O: fulfilled
- CCCc1cc2c(N3CCN(C4=NCC(C)(C)S4)CC3)ncnc2s1: fulfilled
- CCN(CC)CC(O)CNc1ccc(NCC2CO2)c2c1C(=O)c1ccccc1C2=O (stereo not drawn): fulfilled
- O=C(O)c1ccc(-n2nc(-c3ccccc3O)nc2-c2ccccc2O)cc1 [Deferasirox (Exjade)]: fulfilled
- CC(=O)O[C@H]1C[C@@]2(C)[C@@H](C[C@@H](O)[C@H]3[C@@]4(C)CC[C@@H](O)[C@@H](C)[C@@H]4CC[C@@]32C)/C1=C(\CCC=C(C)C)C(=O)O [Fusidate Sodium]: not fulfilled
- NCc1ccc(S(N)(=O)=O)cc1 [Mafenide Acetate]: not fulfilled
- CCOC(=O)/C=C/c1ccc(O)c(OC)c1 [Ethyl ferulate]: not fulfilled
- C=CC(=O)N1CC[C@@H](Oc2nc(Nc3ccc(N4CCC(N5CCN(C)CC5)CC4)cc3)c(C(N)=O)nc2CC)C1: fulfilled
- O=C(NCCN1CCOCC1)Nc1ccc(C(=O)/C=C/c2cccc(N3CCOCC3)n2)cc1: fulfilled
- O=C(Nc1ccccc1)Nc1ccc(-c2ccc(C(=O)[C@@H]3CCC[C@H]3C(=O)O)cc2)cc1: not fulfilled
- FC(F)(F)Oc1ccc(-c2ccc3nnc(C(F)(F)F)n3c2)cc1: not fulfilled
- CC(C(=O)O)c1ccc(-c2ccccc2)c(F)c1 (stereo not drawn): not fulfilled
- Nc1nc(NC2CC2)cc(-c2cccc(Cl)c2Cl)n1: fulfilled
- CC(C)c1cccc(O)c(=O)c1: fulfilled
- C/C=C(/C)C(=O)O[C@H]1Cc2cc3ccc(=O)oc3cc2OC1(C)C [Decursinol angelate]: fulfilled
- COc1ccc(C(C)=O)c(O)c1: not fulfilled
- Cc1cc(Nc2ncc(Cl)c(Nc3ccccc3S(=O)(=O)C(C)C)n2)c(OC(C)C)cc1C1CCNCC1: fulfilled
- C=CC(=O)Nc1cccc(Nc2nc(Nc3ccc(Oc4ccnc(C(=O)NC)c4)cc3)ncc2F)c1: fulfilled
- CC(C)(C)c1[nH]cnc1/C=c1\[nH]c(=O)/c(=C/c2ccccc2)[nH]c1=O: fulfilled
- O=C(O)Cc1ccc2c(c1)C(=O)c1ccccc1CO2: not fulfilled
- CC1OC(OC2CCC3(C)C(CCC4(C)C3C=CC3=C5CC(C)(C)CCC5(CO)C(O)CC34C)C2(C)CO)C(O)C(OC2OC(CO)C(O)C(O)C2O)C1O (stereo not drawn): fulfilled
- C=CC(=O)N1C[C@H](Nc2ncnc3[nH]ccc23)CC[C@@H]1C: not fulfilled
- CN1C(C(=O)Nc2ccccn2)=C(O)c2sccc2S1(=O)=O: not fulfilled
- NC12CC3CC(CC(C3)C1)C2 [Amantadine hydrochloride (Symmetrel)]: not fulfilled
- c1cn2cc(-c3ccc4cn[nH]c4c3)nc(Nc3ccc(N4CCOCC4)cc3)c2n1: not fulfilled
- CC(C)Cc1ccc([C@@H](C)C(=O)NS(C)(=O)=O)cc1 [Reparixin (Repertaxin)]: not fulfilled
- CCCCCCCC/C=C\CCCCCCCC(=O)OCC [Ethyl Oleate]: not fulfilled
- CO[C@H]1/C=C/O[C@@]2(C)Oc3c(C)c(O)c4c(O)c(c(/C=N/N5CCN(C)CC5)c(O)c4c3C2=O)NC(=O)/C(C)=C\C=C\[C@H](C)[C@H](O)[C@@H](C)[C@@H](O)[C@@H](C)[C@H](OC(C)=O)[C@@H]1C: not fulfilled
- O=C(NC1CCN(CCCCC2(C(=O)NCC(F)(F)F)c3ccccc3-c3ccccc32)CC1)c1ccccc1-c1ccc(C(F)(F)F)cc1 [Lomitapide Mesylate]: fulfilled
